Target: PRPF40A WW12 (tandem WW domains, residues 141–236) (Homo sapiens, UniProt O75400)
Construct: WW12 141–236, WW12long 141–248, and N-ext-WW12 56–236; 6xHis-TEV site (N, cleaved yes); made in house; host or cells: Escherichia coli BL21(DE3)
Sequence (O75400 141-236): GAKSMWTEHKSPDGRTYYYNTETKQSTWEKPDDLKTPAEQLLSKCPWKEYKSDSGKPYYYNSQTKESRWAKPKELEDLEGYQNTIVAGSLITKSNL
Test: ITC of PRPF40A WW12 with GB1-tagged proline-rich peptides and constructs
Assay type: binding
Details: ITC binding enthalpy, as E1
No end group written: not given here.
OBSERVABLE: DH
Answer as a quantity: numeral, then unit.

{"SUBSTANCE": "P10: recombinant GB1-tagged polyproline peptide, 10 prolines (GB1-GAMSGSPPPPPPPPPPSGSN; not fully specified)", "SYSTEM NAME": "PRPF40A WW12 (tandem WW domains, residues 141–236) (Homo sapiens, UniProt O75400)", "RESULT VALUE": "-9.63 ± 1.24 kcal/mol"}
{"SUBSTANCE": "MQPPPPPMNQGPHPPG [SF1_425–440, GB1-tagged 16-mer from the SF1 C-terminal region]", "SYSTEM NAME": "PRPF40A WW12 (tandem WW domains, residues 141–236) (Homo sapiens, UniProt O75400)", "RESULT VALUE": "-13.3 ± 1.41 kcal/mol"}
{"SUBSTANCE": "PPLPPGAPPPPPPPPP [SF1WWbs]", "SYSTEM NAME": "PRPF40A WW12 (tandem WW domains, residues 141–236) (Homo sapiens, UniProt O75400)", "RESULT VALUE": "-19.6 ± 0.406 kcal/mol"}
{"SUBSTANCE": "P25: recombinant GB1-tagged polyproline peptide, 25 prolines (GB1-GAMSGSPPPPPPPPPPPPPPPPPPPPPPPPPSGSN; also: His6 tag state not given here)", "SYSTEM NAME": "PRPF40A WW12 (tandem WW domains, residues 141–236) (Homo sapiens, UniProt O75400)", "RESULT VALUE": "-16.6 ± 0.645 kcal/mol"}
{"SUBSTANCE": "MPPPPMGMMPPPPPPP [SF1_470–485]", "SYSTEM NAME": "PRPF40A WW12 (tandem WW domains, residues 141–236) (Homo sapiens, UniProt O75400)", "RESULT VALUE": "-13.6 ± 0.813 kcal/mol"}
{"SUBSTANCE": "MPPPPPPPSGQPPPPP [SF1_478–493, GB1-tagged 16-mer from the SF1 C-terminal region]", "SYSTEM NAME": "PRPF40A WW12 (tandem WW domains, residues 141–236) (Homo sapiens, UniProt O75400)", "RESULT VALUE": "-14.3 ± 0.956 kcal/mol"}

Alright, here's another substance for you.
q: Determine its reported DH: P19: recombinant GB1-tagged polyproline peptide, 19 prolines (GB1-GAMSGSPPPPPPPPPPPPPPPPPPPSGSN; also: His6 tag state not given here)
a: -18.2 ± 0.837 kcal/mol

----------
Target: PRPF40A WW12 (tandem WW domains, residues 141–236) (Homo sapiens)
Construct: WW12 141–236, WW12long 141–248, and N-ext-WW12 56–236; 6xHis-TEV site (N, cleaved yes); made in house; host or cells: Escherichia coli BL21(DE3)
Test: ITC of PRPF40A WW12 with GB1-tagged proline-rich peptides and constructs
Type: binding
Details: ITC, SF1 peptides, individual value 1 (replicate 1); read-out: Kd Values with WW12, individual value
Cut-off 10 µM on Kd: below means 1, at or above means 0.

Example cases with answers are listed next.
{"POLYMER SEQUENCE": "PPLPPGAPPPPPPPPP [SF1WWbs]", "CLASSIFICATION": 1}
{"POLYMER SEQUENCE": "MPPPPPPPSGQPPPPP [SF1_478–493, GB1-tagged 16-mer from the SF1 C-terminal region]", "CLASSIFICATION": 1}
{"POLYMER SEQUENCE": "MPPFGMPPAPPPPPPQ [SF1_623–638, GB1-tagged 16-mer from the SF1 C-terminal region]", "CLASSIFICATION": 0}
{"POLYMER SEQUENCE": "TMVPLPPGVQPPLPPG [SF1_565–580, GB1-tagged 16-mer from the SF1 C-terminal region]", "CLASSIFICATION": 0}
{"POLYMER SEQUENCE": "MQPPPPPMNQGPHPPG [SF1_425–440, GB1-tagged 16-mer from the SF1 C-terminal region]", "CLASSIFICATION": 0}

q: Item MPPPPMGMMPPPPPPP [SF1_470–485] : Kd beneath 10 µM, strictly?
a: 0
